Data origin: patent US8252810B2

# tested-target: human Nav1.8 (Homo sapiens)
# Sequence (Q9Y5Y9 whole entry): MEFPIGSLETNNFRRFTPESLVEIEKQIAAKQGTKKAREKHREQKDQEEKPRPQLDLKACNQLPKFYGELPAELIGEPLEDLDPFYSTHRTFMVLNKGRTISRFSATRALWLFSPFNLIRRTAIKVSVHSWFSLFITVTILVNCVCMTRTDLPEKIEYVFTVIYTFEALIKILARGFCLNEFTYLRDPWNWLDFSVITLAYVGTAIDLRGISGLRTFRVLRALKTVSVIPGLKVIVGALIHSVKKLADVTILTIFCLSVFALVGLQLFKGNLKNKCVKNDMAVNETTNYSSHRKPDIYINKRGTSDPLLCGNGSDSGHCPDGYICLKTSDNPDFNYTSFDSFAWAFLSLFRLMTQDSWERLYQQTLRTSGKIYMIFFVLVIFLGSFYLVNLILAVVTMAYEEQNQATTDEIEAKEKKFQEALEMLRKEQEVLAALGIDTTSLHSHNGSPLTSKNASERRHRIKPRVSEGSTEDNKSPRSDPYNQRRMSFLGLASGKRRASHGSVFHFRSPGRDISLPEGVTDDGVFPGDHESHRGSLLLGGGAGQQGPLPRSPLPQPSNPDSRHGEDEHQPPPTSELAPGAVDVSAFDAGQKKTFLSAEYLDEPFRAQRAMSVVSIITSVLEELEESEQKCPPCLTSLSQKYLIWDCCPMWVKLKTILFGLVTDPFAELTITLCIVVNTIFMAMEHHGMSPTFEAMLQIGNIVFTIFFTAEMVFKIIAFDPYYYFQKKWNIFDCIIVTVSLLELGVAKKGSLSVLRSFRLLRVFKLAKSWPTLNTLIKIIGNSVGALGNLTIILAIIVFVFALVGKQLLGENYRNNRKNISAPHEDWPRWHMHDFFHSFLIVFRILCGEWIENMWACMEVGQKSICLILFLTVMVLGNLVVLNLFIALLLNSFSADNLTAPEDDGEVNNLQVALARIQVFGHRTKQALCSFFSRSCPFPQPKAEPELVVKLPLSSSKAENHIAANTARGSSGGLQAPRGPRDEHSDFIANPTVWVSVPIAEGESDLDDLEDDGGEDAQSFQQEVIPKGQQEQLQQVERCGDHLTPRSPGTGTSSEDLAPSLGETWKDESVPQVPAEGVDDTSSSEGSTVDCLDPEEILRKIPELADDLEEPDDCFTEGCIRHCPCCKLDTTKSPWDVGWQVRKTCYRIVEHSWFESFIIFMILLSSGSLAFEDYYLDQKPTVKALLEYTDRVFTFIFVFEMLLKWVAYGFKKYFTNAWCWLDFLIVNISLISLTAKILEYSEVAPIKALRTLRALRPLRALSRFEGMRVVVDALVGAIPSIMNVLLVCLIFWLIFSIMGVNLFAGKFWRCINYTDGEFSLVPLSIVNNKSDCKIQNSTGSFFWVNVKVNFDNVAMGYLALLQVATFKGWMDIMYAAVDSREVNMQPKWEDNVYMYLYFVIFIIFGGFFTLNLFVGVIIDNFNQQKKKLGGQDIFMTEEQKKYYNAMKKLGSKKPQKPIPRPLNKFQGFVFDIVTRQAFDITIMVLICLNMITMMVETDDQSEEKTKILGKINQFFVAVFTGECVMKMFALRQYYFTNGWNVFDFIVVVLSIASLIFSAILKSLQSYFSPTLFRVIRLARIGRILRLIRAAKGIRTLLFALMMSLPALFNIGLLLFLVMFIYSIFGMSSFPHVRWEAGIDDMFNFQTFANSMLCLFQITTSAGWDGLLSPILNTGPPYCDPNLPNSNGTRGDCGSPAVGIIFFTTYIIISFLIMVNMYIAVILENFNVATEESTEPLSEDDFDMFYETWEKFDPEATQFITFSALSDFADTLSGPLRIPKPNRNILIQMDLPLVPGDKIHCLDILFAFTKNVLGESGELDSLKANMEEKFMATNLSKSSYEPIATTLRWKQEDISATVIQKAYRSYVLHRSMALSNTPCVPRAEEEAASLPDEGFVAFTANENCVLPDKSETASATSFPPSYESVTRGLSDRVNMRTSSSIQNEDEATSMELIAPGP
# test-summary: Pharmacological effects on TTX-resistant Na channels in cells expressing human Nav1.8 gene (membrane potential dye, deltamethrin stimulation)
parameter: IC50 (µM)
Give the number; µM is assumed, so skip it.

Query string: Data request, read-out IC50, for CCn1c(C)nc(=O)n(C[C@H](O)CN2[C@@H]3CC[C@H]2C[C@@H](OCc2ccccc2CF)C3)c1=O [Example 66]
Result string: 5.4
